test system: HEK-293T; experiment: Multiplex assay against HEK293T; format: toxicity, cell-based; conditions: human, 48 h, 10 µM, compound concentration 10 uM, replicate 1
Measured Population Apoptotic (%), listed per entry for reference.
metric name: Population Apoptotic (%)

- smiles representation: "CCCS(=O)(=O)c1nc(NC2CC2)cc(-c2ccc3c(ccn3C3CC(C)(C)NC(C)(C)C3)c2)n1"
  val: 69
- smiles representation: "O=C1N/C(=N/c2ccccc2F)S/C1=C\\c1ccc(C(=O)O)cc1"
  val: 29
- smiles representation: "CCOc1cc2ncc(C#N)c(Nc3ccc(OCc4ccccn4)c(Cl)c3)c2cc1NC(=O)/C=C/CN(C)C"
  val: 52
- smiles representation: "CCn1c(=O)c(-c2ccc(-c3cncs3)cc2Cl)cc2cnc(Nc3ccc(N4CCN(C)CC4)cc3)nc21"
  val: 64
- smiles representation: "CCc1cccc(CC)c1NC(=O)c1nn(C)c2c1CCc1cnc(Nc3ccc(C(=O)NC4CCN(C)CC4)cc3OC(F)(F)F)nc1-2"
  val: 84
- smiles representation: "S=C(NCCCc1c[nH]cn1)NCCCN(Cc1ccc(Cl)c(Cl)c1)c1ccc(Br)cn1"
  val: 71
- smiles representation: "CCCn1c(=O)c2[nH]c(-c3cnn(Cc4cccc(C(F)(F)F)c4)c3)nc2n(CC)c1=O"
  val: 53
- smiles representation: "COCC(=O)NC/C=C/c1ccc2ncnc(Nc3ccc(Oc4ccc(C)nc4)c(C)c3)c2c1"
  val: 62
